- subject.of.test: Glutamate NMDA receptor; Grin1/Grin2b (Rattus norvegicus, UniProt P35439+Q00960)
- Sequence (Q00960 whole entry, other chains not shown): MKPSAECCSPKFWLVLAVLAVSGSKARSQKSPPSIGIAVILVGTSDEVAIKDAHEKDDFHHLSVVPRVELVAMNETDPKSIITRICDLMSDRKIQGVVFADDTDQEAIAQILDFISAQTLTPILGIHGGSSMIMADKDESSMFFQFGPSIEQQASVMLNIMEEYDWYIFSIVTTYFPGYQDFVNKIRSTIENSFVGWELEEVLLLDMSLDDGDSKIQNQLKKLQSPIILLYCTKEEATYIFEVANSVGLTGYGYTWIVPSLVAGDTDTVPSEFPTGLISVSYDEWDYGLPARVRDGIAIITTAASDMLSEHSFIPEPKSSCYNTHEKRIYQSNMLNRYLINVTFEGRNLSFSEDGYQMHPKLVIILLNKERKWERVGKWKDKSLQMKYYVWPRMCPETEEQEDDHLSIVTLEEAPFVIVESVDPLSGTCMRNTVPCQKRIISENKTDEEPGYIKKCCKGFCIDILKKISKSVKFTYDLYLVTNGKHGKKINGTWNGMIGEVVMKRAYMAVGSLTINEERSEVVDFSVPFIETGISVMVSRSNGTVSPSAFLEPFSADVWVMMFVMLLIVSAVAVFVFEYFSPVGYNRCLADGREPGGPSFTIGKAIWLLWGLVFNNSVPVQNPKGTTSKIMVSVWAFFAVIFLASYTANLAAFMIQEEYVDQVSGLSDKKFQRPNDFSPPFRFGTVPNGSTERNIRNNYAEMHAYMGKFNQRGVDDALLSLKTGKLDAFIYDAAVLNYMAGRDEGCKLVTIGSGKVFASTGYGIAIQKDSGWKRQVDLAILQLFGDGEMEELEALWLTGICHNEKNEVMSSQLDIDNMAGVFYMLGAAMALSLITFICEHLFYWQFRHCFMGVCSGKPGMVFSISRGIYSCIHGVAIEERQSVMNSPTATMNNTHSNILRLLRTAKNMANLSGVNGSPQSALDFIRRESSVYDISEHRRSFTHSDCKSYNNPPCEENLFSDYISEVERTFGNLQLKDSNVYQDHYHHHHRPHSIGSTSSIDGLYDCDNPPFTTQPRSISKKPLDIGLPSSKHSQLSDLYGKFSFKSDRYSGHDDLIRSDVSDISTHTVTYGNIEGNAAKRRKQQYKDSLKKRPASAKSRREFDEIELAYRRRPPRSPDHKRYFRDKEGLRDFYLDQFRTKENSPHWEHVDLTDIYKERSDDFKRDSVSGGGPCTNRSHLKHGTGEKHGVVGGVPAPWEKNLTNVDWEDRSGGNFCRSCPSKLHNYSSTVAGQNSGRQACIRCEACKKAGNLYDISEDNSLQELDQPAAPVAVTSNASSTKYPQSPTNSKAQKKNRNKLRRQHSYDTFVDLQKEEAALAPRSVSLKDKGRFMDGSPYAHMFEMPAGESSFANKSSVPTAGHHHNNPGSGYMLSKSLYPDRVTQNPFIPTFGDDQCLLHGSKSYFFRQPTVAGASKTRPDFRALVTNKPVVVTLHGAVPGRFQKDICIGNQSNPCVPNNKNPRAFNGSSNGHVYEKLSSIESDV
- method.summary: Inhibition of NMDA response at NR1A/2B receptor expressed in Xenopus oocytes
- Type: cell-based, Oocyte
observed.property: IC50 (nM)

Ask: What does the data say about its IC50? Entry: "Clc1ccc(CC2CCN(CCC#Cc3cnc[nH]3)CC2)cc1"
Result: 28

P: C(#Cc1cc[nH]c1)CCN1CCC(Cc2ccccc2)CC1
Q: C(#Cc1cnc[nH]1)CCN1CCC(Cc2ccccc2)CC1
R: C(#Cc1cnc[nH]1)CN1CCC(Cc2ccccc2)CC1
S: Cc1ccc(CC2CCN(CCC#Cc3c[nH]cn3)CC2)cc1
Ask: Put the entries in order of IC50, starting with the largest number. Please write the labels in the order that was asked for.
Result: P, R, Q, S
(P: 190 nM, R: 120 nM, Q: 37 nM, S: 20 nM)
